# System: NCI/ADR-RES ovarian
# METHOD: NCI-60 one-dose screen, 48 h (100 = growth as untreated, 0 = no growth, -100 = all killed)
# RECORDED CONDITIONS: 10 µM unless noted
Compounds without any hit were thinned out: in the full panel of roughly 83,000, 20% have a hit.
READOUT TYPE: growth (%)
Express your answer in %, writing the number without its unit.

Query: growth; subject: COc1cc(C2CC(c3cc(OC)c(OC)c(OC)c3)=NN2c2ccccc2)ccc1OCc1ccc(C)cc1 (centres undefined) 101

Query: growth; subject: "C#C[C@]1(O)CC[C@H]2[C@@H]3CC=C4c5sc(-c6ccc([N+](=O)[O-])cc6)nc5CC[C@]4(C)[C@H]3CC[C@@]21C" 25.7

Query: growth; subject: "COc1ccc(C2(SCCNCc3cc(N(C)C)ccn3)c3ccccc3C=Cc3ccccc32)cc1" -47.9

Query: growth; subject: "Cc1cc2nc3c4ccccc4n(CC4=NCCN4)c3nc2cc1C" 18.6

Query: growth; subject: "O=C(NN1C(=O)/C(=C/C=C/c2ccc([N+](=O)[O-])o2)SC1=S)c1ccccc1O" -0.0269

Query: growth; subject: "COc1ccc(C(=O)/C=C/c2ccc(Cl)c(Cl)c2)cc1S(N)(=O)=O" 14.8

Query: growth; subject: COCOc1cc2oc(C(=O)N[C@@H](Cc3ccccc3)C(O)C(=O)NCc3ccccc3)c(C)c(=O)c2cc1OCOC (some centres undefined) 98.5

Query: growth; subject: "CC(=O)Nc1ccc(-n2cnc3ccc(-c4ccc(O)cc4)cc32)cc1" 84.4

Query: growth; subject: "Cc1c(C(=O)NNC(=O)c2ccc(Cl)cc2)nnn1-c1ccc(Cl)cc1" 91.3

###

# Tested on: OVCAR-4 ovarian
# METHOD: NCI-60 one-dose screen, 48 h
# RECORDED CONDITIONS: 10 µM unless noted
The panel holds about 83,000 compounds, 20% with a hit somewhere; the sample as a whole holds those more often. The source made the active and inactive calls. The calls were made as follows: active = growth percent below 10; inactive = the rest.
Outcome field: choose from Yes (active), No (inactive)

For "COc1ccc(-c2ccc(SCC(=O)Nc3ccc(S(N)(=O)=O)cc3Br)nn2)cc1" , what call appears in the results of this test? No

For "Nc1nc(-c2ccccc2)c(N=Nc2ccc([N+](=O)[O-])cc2Cl)s1" , what call appears in the results of this test? No

For "COc1ccc(NC(=O)Cn2c3c(sc2=O)[C@H]2[C@@H](O)[C@@H](O)[C@H](O)[C@@H]2CS3)cc1" , what call appears in the results of this test? No

For "CN(C)CCn1c2ccccc2c2nc3cc(C(F)(F)F)ccc3nc21" , what call appears in the results of this test? No

For "COc1ccc(-c2nnc3ccc(N/N=C/c4ccc(O)cc4)nn23)cc1" , what call appears in the results of this test? No

For "S=C(Nc1ccccc1)Nc1ccc(OCc2nc3ccccc3[nH]2)cc1" , what call appears in the results of this test? No

For "COc1ccc(/C=C2\C(=N)N=C(SCc3nc4ccccc4[nH]3)NC2=O)cc1" , what call appears in the results of this test? No

For COCOc1ccc2c(=O)c(C)c(C(=O)N[C@@H](Cc3ccccc3)C(O)C(=O)NCCc3ccc(OC)cc3)oc2c1 (some centres not stated) , what call appears in the results of this test? No

For "CN1CCN(c2ccc3c(c2)nc(NNC(=O)c2cnccn2)c2cccn23)CC1" , what call appears in the results of this test? Yes

For "O=C(NNc1nc2cc(F)ccc2n2c(C(=O)N3CCN(C4CC4)CC3)ccc12)c1ncccn1" , what call appears in the results of this test? No

For COc1c(F)ccc(C(=O)Nc2ccc3nc(NC(=O)C4CCCN(S(=O)(=O)c5cccc(Cl)c5)C4)sc3c2)c1F (configuration not stated) , what call appears in the results of this test? No

For "CCCSc1nc(Nc2ccc(S(N)(=O)=O)cc2)c(C#N)c(-c2ccc(Cl)cc2)n1" , what call appears in the results of this test? Yes

For CC1=C(C(=O)OCc2ccccc2)C(c2c(O)cc(O)cc2O)n2c(nc3ccccc32)N1 (configuration not stated) , what call appears in the results of this test? No

For "O=C(O)c1cccc(-c2ccc(/C=N/NC(=O)c3[nH]c4ccc(Br)cc4c3-c3ccccc3)s2)c1" , what call appears in the results of this test? No

For Cc1nc(Nc2ccccn2)sc1C(=O)CC(SCC(=O)Nc1ccc(Cl)cc1)c1ccccc1F (configuration not stated) , what call appears in the results of this test? No

For CC1=C(C(=O)OC(C)C)C(c2cccc(O)c2)NC(=S)N1 (configuration not stated) , what call appears in the results of this test? No

For "Cn1cc(-c2nnc(N)nc2-c2c[nH]c3ccc(F)cc23)c2cccnc21" , what call appears in the results of this test? No

For "O=C(c1ccccc1)c1ccc2nc(-c3ccc(F)cc3)[nH]c2c1" , what call appears in the results of this test? No

For CCOC(=O)/C=C/c1cccc2c1C(=O)NC(C)(c1cc3cc(Cl)ccc3oc1=O)N2 (configuration not stated) , what call appears in the results of this test? No

For COc1cc(C2CC(c3cc(OC)c(OC)c(OC)c3)=Nc3c(N)nc(N)nc3N2)ccc1Oc1nc(NCCO)nc(N2CCOCC2)n1 (configuration not stated) , what call appears in the results of this test? No

For CN(C)c1nc(NCCNS(=O)(=O)c2ccc(C3=Nc4c(N)nc(N)nc4NC(c4ccc(Cl)cc4)C3)cc2)nc(Nc2ccc(F)cc2)n1 (configuration not stated) , what call appears in the results of this test? No

For COc1cc2c(c(OC)c1OC)C(=O)CC(c1cccc(NC(=O)c3cc([N+](=O)[O-])ccc3Cl)c1)O2 (configuration not stated) , what call appears in the results of this test? No

For "Cn1cc(-c2cc(N)n3nc(-c4c[nH]c5ccccc45)cc3n2)c2cccnc21" , what call appears in the results of this test? No

For "N#Cc1c(-c2ccc(Br)cc2)nc2n[nH]c(-c3ccc(Br)cc3)c2c1-c1ccc(F)cc1" , what call appears in the results of this test? No

For "CCCSc1nc(NCCc2c[nH]c3ccccc23)c(C#N)c(-c2ccc(OC)cc2)n1" , what call appears in the results of this test? No

For "Clc1cccc(-c2ccc(OCCCN3CCN(c4ccncc4)CC3)cc2)c1" , what call appears in the results of this test? No

For "COc1ccc(C(=O)/C=C/c2ccc3ccccc3c2)cc1S(N)(=O)=O" , what call appears in the results of this test? No

For "COc1ccc(C(=O)/C=C/c2ccc(OCc3ccc(F)cc3)c(OC)c2)cc1OC" , what call appears in the results of this test? No

For "CN(C)CCn1c2ccccc2c2nc3ccc([N+](=O)[O-])cc3nc21" , what call appears in the results of this test? No

For CN(C)c1nc(NCCNS(=O)(=O)c2ccc(C3=Nc4c(N)nc(N)nc4NC(c4ccc(C(F)(F)F)cc4)C3)cc2)nc(Nc2ccc(F)cc2)n1 (configuration not stated) , what call appears in the results of this test? No

For COc1cc(C2CC(c3cc(OC)c(OC)c(OC)c3)=NN2C(C)=O)ccc1OCc1ccccc1 (configuration not stated) , what call appears in the results of this test? No

For "Cc1ccc2c(N)c(C(=O)Nc3ccc(OC(F)(F)F)cc3)sc2n1" , what call appears in the results of this test? No

For "C#CCOc1ccc(/C=N/Nc2nc(-c3cc4cc(Br)ccc4oc3=O)cs2)cc1OC" , what call appears in the results of this test? No

For CC(=O)OC[C@@]1(C)C2CC[C@]3(C)C(CC=C4C5CC(C)(C)CC[C@]5(C(=O)Nc5ccc(C)cc5)CC[C@]43C)[C@@]2(C)C[C@@H](OC(C)=O)[C@@H]1OC(C)=O (some centres not stated) , what call appears in the results of this test? No

For "Cc1ccc(C(=O)NN2C(=O)/C(=C/C=C/c3ccc([N+](=O)[O-])o3)SC2=S)cc1" , what call appears in the results of this test? Yes

For "Cc1ccc(-n2c(-c3cc4ccccc4nc3Cl)noc2=O)cc1" , what call appears in the results of this test? No

For O=C(/C=C/c1ccc(O)c(O)c1)NC1CCOC1O (configuration not stated) , what call appears in the results of this test? No

###

# Tested on: HOP-92 NSCLC
# METHOD: NCI-60 one-dose screen, 48 h (100 = growth as untreated, 0 = no growth, -100 = all killed)
# RECORDED CONDITIONS: 10 µM unless noted
About 83,000 compounds went through this panel and 20% of them were active in at least one assay; those are over-represented in the sample as a whole.
Consider the following molecules; for each one, report its growth.
Express your answer in %, writing the number without its unit.

Observed growth on HOP-92 NSCLC for "Cc1ccc(C(=O)CSc2nc3ccc(F)cc3c(=O)n2-c2ccc(Cl)cc2)cc1" , please. -2.96

Observed growth on HOP-92 NSCLC for "Cc1ccc(-c2nnc3ccc(N/N=C/c4ccccc4)nn23)cc1" , please. 70.5

Observed growth on HOP-92 NSCLC for "O=C(COc1ccc(NC(=O)Nc2ccc(Cl)c(Cl)c2)cc1)N=Nc1c(O)[nH]c2ccc([N+](=O)[O-])cc12" , please. 94

Observed growth on HOP-92 NSCLC for "CCN1CCN(Cc2ccc(C(=O)Nc3cccc(C#Cc4cccc5[nH]nc(N)c45)c3)cc2C(F)(F)F)CC1" , please. -69.8

Observed growth on HOP-92 NSCLC for "O=C(N/N=C/c1ccc(-c2ccc(O)cc2)o1)c1[nH]c2ccc(Br)cc2c1-c1ccccc1" , please. -40.7

Observed growth on HOP-92 NSCLC for "CN1CCN(c2ccc3c(c2)nc(NNC(=O)c2ncccn2)c2cccn23)CC1" , please. -14.8

Observed growth on HOP-92 NSCLC for "Cc1ccc(NC(=O)CN2CCN(c3ncnc4c3cnn4-c3ccccc3)CC2)cc1" , please. 90.9

Observed growth on HOP-92 NSCLC for "Clc1cccc(-c2ccc(OCCCN3CCN(c4ccncc4)CC3)cc2)c1" , please. -1.12

Observed growth on HOP-92 NSCLC for "CCCCSc1nc(NCCc2c[nH]c3ccccc23)c(C#N)c(-c2ccc(F)cc2)n1" , please. 55.7
